B1: Chromodomain-helicase-DNA-binding protein 4, residues 444 to 496; numbered along this chain, Q14839 (parent)
chain: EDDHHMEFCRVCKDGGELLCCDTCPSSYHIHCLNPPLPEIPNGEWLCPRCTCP

# Variants of: B1
# ASSAY EXPLANATION: abundance fitness (aPCA) (normalised: wild type 0, dead -1); higher = more abundant; growth selection in yeast, the domain comes from the species named
# CONDITION DESCRIPTION: Homo sapiens
Known abundance fitness of a selection of variants
OBSERVABLE: abundance fitness

> print(dat)
     var  number
 1  G43A  -0.079
 2  H29Q  -0.833
 3  E39P  -0.152
 4  C32W   -1.05
 5  C50W   -1.11
 6   F8P  -0.388
 7  P48V  -0.504
 8  W45K  -0.549
 9  S27M   -0.14
10  E44M  -0.084
11  P25M  -0.167
12  P36Q  -0.026
13  R49A   0.019
14  D14S   0.018
15  E17T   0.015
16  P35E  -0.076
17   F8I  -0.019
18  C47F  -0.803
19  L46W  -0.266
20  C21M  -0.955
21   D2L   0.163
22   H4L  -0.162
23  P36C  -0.546
24  I30V   0.005
25  C47L  -0.639
26  C20S   0.093
27  K13G   -0.01
28   M6W  -0.231
29   E7D  -0.048
30  W45V  -0.431
31  R49M  -0.101
32  T51V  -0.048
33   M6Q  -0.508
34  G43D  -0.151
35  H31R  -0.042
36   H4W  -0.126
37  L37N  -0.244
38   E1Q  -0.486
39   F8W  -0.041
40  P35D  -0.262
41  E39V  -0.025
42  G16E   0.019
43  P38F  -0.153
44  V11Y  -0.377
45  L18S  -0.717
46  N42S  -0.063

meta.source: the Human Domainome abundance scans (Beltran et al. 2025)
